PBM binding z-score for assorted sequences
System: PPARg:RXRa IVT, anti-PPARg (NR concentration 270 nM, RXRa partner concentration 90 nM)
measurement_protocol: PBM binding z-score (relative to random genomic background probes); higher = stronger binding; sequences stand for … in GC…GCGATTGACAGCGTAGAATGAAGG

[
  {
    "monomer_sequence": "CGTCCAAGGTCAGCAGGTCAGTCAAAGCGACGTG",
    "PBM binding z-score": 3.69
  },
  {
    "monomer_sequence": "CAGCCTCGGTCAGGGCCAGTATAGGAGGAACGTT",
    "PBM binding z-score": -0.552
  },
  {
    "monomer_sequence": "ACAGACAGGTGAGTGCAGGTAACTCAGCTGGACG",
    "PBM binding z-score": 1.05
  },
  {
    "monomer_sequence": "ACAGACAGCTGATGAAGGTAACTCAGGCTATCAT",
    "PBM binding z-score": -0.158
  },
  {
    "monomer_sequence": "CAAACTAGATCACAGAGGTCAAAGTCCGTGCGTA",
    "PBM binding z-score": 4.36
  },
  {
    "monomer_sequence": "AGAATGAGGTTATTAAGATCAAGGAATTGCGGTC",
    "PBM binding z-score": 2.73
  },
  {
    "monomer_sequence": "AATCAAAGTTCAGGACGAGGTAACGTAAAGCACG",
    "PBM binding z-score": 0.571
  },
  {
    "monomer_sequence": "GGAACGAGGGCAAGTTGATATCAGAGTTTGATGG",
    "PBM binding z-score": 2.65
  },
  {
    "monomer_sequence": "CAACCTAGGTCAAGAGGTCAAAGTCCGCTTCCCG",
    "PBM binding z-score": 5.45
  },
  {
    "monomer_sequence": "AGAATGAGGATATACGTAGATCAGGGAAGAAAGT",
    "PBM binding z-score": -0.218
  },
  {
    "monomer_sequence": "TGTCAAAGTTCACAGGTAACGTAAGTATCCACAC",
    "PBM binding z-score": 4.5
  },
  {
    "monomer_sequence": "CCTACTGGGCCTAGGTCATTGATCAGTCAAAGCA",
    "PBM binding z-score": 1.13
  },
  {
    "monomer_sequence": "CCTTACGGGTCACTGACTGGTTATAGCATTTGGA",
    "PBM binding z-score": 3.69
  },
  {
    "monomer_sequence": "AGAATGAGGTTATACGTAGATTAGGGAAGAAAGT",
    "PBM binding z-score": 2.24
  },
  {
    "monomer_sequence": "CCTTACGGGTCACTGGCAGGTTATAGCATTTGGA",
    "PBM binding z-score": 3.68
  },
  {
    "monomer_sequence": "CCTGCTAGGTGATGGTCAGCTAATCTACAGTATG",
    "PBM binding z-score": 1.13
  },
  {
    "monomer_sequence": "CTACCAGGGTGAACAAGGTCGTTGATTACTATTC",
    "PBM binding z-score": 1.86
  },
  {
    "monomer_sequence": "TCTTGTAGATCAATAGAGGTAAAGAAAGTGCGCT",
    "PBM binding z-score": 0.822
  },
  {
    "monomer_sequence": "CCGAGTAGGTTATGGGGCATTTAGGCAACGGTGA",
    "PBM binding z-score": 3.53
  },
  {
    "monomer_sequence": "CCTACTGGGCCATCAGGTTATTGATATCAACGTT",
    "PBM binding z-score": 4.48
  },
  {
    "monomer_sequence": "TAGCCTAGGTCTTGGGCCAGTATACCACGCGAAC",
    "PBM binding z-score": -0.4
  },
  {
    "monomer_sequence": "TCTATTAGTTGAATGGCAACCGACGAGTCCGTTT",
    "PBM binding z-score": 0.106
  },
  {
    "monomer_sequence": "ACTCAAAGTTCATCTAGGTAACGTAAGATATGCT",
    "PBM binding z-score": 2.81
  },
  {
    "monomer_sequence": "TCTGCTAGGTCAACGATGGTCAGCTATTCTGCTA",
    "PBM binding z-score": 4.42
  },
  {
    "monomer_sequence": "TCTATTAGTTGAATAGGGCAACCGAAACAGCGGA",
    "PBM binding z-score": 1.19
  },
  {
    "monomer_sequence": "ACTATTAGTTGGCTTAGGGCAACCGATACGACGC",
    "PBM binding z-score": 0.0103
  },
  {
    "monomer_sequence": "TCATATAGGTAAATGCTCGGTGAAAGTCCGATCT",
    "PBM binding z-score": 1.97
  },
  {
    "monomer_sequence": "CGAACTAGGTCAGAACAGGGCAGTGAAGGATGAT",
    "PBM binding z-score": 7.22
  },
  {
    "monomer_sequence": "CGAACTAGGTCATTGACAGTACAGTGAATAGTAA",
    "PBM binding z-score": 8.48
  },
  {
    "monomer_sequence": "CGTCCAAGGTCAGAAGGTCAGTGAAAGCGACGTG",
    "PBM binding z-score": 3.06
  },
  {
    "monomer_sequence": "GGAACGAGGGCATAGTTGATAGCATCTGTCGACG",
    "PBM binding z-score": 2.41
  },
  {
    "monomer_sequence": "GATACAGGGTCAGCTAGGGGCCAGAGTATGGAAA",
    "PBM binding z-score": 2.41
  },
  {
    "monomer_sequence": "CCTCGGAGGACATCAGGAGGTCAGAGCTGCCAGA",
    "PBM binding z-score": 0.307
  },
  {
    "monomer_sequence": "ATCTCTAGGTAACAAGATCAGTGAAAGAGAGGAC",
    "PBM binding z-score": 2.72
  },
  {
    "monomer_sequence": "CCTACTGGGCCAAATAGGTCATTGATGCCGATAA",
    "PBM binding z-score": 4.63
  },
  {
    "monomer_sequence": "CCTACTGGGCCAGAGGTCATTGATTCCAATGCTC",
    "PBM binding z-score": 4.99
  },
  {
    "monomer_sequence": "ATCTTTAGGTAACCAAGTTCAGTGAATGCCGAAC",
    "PBM binding z-score": 1.85
  },
  {
    "monomer_sequence": "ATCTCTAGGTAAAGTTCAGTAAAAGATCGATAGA",
    "PBM binding z-score": 2.45
  },
  {
    "monomer_sequence": "CCTAGTTGGTCAAGGTCACACAGGCTATAGGTAC",
    "PBM binding z-score": 3.64
  },
  {
    "monomer_sequence": "TTACCAAGGTGAGCTGAGGTCGTTGATCCAACTC",
    "PBM binding z-score": 2.17
  },
  {
    "monomer_sequence": "ATATGTAGGTTAAGAGTCATTCAGGTTGGTTCGC",
    "PBM binding z-score": 7.13
  },
  {
    "monomer_sequence": "TACCCTAGGTCATGCGGGCCAGTATAGTGTCGGC",
    "PBM binding z-score": 3.63
  },
  {
    "monomer_sequence": "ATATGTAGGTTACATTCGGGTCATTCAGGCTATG",
    "PBM binding z-score": 7.26
  },
  {
    "monomer_sequence": "ATCGAAAGGTCGTGAGGTCAGTATACAGAAAGGC",
    "PBM binding z-score": 2.89
  },
  {
    "monomer_sequence": "CCTGCAAGGTCATGGTCAGCTAATCTACAGTATG",
    "PBM binding z-score": 3.3
  },
  {
    "monomer_sequence": "CTCGAAAGGTCGTGCTCAGGTGATTATACCAAAC",
    "PBM binding z-score": 1.72
  },
  {
    "monomer_sequence": "GCTAGCTGGTCAGTAAAAGGTCACACACCGGTCG",
    "PBM binding z-score": 2.35
  },
  {
    "monomer_sequence": "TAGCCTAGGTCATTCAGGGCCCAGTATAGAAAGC",
    "PBM binding z-score": 2.54
  },
  {
    "monomer_sequence": "GCAGACAGGTGAAACGCAGGTAACTTAGGGTGGC",
    "PBM binding z-score": 0.626
  },
  {
    "monomer_sequence": "GGAACGAGGGCAACTTGATAGCAGAGTTTGATGG",
    "PBM binding z-score": 3.29
  },
  {
    "monomer_sequence": "CCGACAGGGGCAGAAAGGTTACCATACCATCCGG",
    "PBM binding z-score": 0.0354
  }
]

Origin of values: the supplement of paper PMC6555819
